target: CDK1/Cyclin B (Homo sapiens, UniProt P06493); construct: purchased Invitrogen PR4768C; assay: Enzymatic assay for CDK1 (FRET based LANCE Ultra kinase assay); format: biochemical; conditions: read-out: CDK1 enzymatic activity (IC50 range)
Sequence (P06493 whole entry): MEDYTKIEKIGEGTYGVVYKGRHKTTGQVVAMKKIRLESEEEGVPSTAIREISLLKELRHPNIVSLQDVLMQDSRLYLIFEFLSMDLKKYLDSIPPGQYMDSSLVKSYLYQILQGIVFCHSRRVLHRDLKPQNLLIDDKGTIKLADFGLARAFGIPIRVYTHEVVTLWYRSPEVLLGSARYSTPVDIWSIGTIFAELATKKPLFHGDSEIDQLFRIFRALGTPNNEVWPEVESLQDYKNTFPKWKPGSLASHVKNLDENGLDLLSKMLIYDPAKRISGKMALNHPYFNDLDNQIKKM
Sequence (P14635 whole entry partner): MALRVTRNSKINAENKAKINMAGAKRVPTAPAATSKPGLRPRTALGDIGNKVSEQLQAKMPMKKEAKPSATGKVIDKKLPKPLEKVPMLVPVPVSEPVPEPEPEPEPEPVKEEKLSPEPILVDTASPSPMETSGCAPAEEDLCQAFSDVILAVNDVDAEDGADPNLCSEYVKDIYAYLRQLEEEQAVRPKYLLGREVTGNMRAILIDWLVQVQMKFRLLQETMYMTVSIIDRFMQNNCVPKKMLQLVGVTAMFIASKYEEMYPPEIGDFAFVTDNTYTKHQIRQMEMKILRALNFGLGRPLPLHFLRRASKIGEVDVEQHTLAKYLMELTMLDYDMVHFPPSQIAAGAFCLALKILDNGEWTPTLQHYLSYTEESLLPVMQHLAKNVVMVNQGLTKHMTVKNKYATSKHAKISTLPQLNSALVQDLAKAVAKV
pIC50: −log10 of the molar value.
The following molecules are listed with their measured pIC50 values.

> print(dat)
                                   molecule  property      measured
1  CC(C)c1cnn2c(NCc3ccccc3-n3cccn3)nc(-c3cccc(OC4CCNC4)c3)nc12 (racemic)     pIC50        < 6.00
2  CC(C)c1cnn2c(NCc3ccccc3-n3cc4cc(C#N)ccc4n3)nc(N3CCC(N)CC3)nc12     pIC50        < 6.00
3  CNC(=O)c1cccc(-c2cnn(-c3ccccc3CNc3nc(N4CCC(N)CC4)nc4c(C(C)C)cnn34)c2)c1     pIC50  6.00 to 7.00
4  CCCc1ccc2nn(-c3ccccc3CNc3nc(N4CCC(N)CC4)nc4c(C(C)C)cnn34)cc2c1     pIC50        < 6.00
5  CC(C)c1cnn2c(NCc3ccccc3-c3ccc4ccccc4n3)nc(OCC3CCNCC3O)nc12 (stereo not drawn)     pIC50        < 6.00

Proceeding to the next molecule to report its pIC50.
Look at this molecule and give its reported pIC50. CCCNC(=O)Nc1ccccc1CNc1nc(N2CCC(N)CC2)nc2c(C(C)C)cnn12
< 6.00

---

molecular target: CDK1/Cyclin B (Homo sapiens); construct: purchased Invitrogen PR4768C; test: Enzymatic assay for CDK1 (FRET based LANCE Ultra kinase assay); assay type: biochemical; details: read-out: CDK1 enzymatic activity (IC50 range)
pIC50: −log10 of the molar value.
PROPERTY: pIC50

Answered cases to consult:
> print(dat)
                                   molecule  property  measured
1  CC(C)c1cnn2c(NCc3c(Cl)cccc3C(C)(C)O)nc(N3CCC(N)CC3)nc12     pIC50    < 6.00
2  CC(C)c1cnn2c(NCc3ccccc3Oc3ccc4ccccc4n3)nc(N3CCC(N)CC3)nc12     pIC50    < 6.00
3  CC(C)c1cnn2c(NCc3ccccc3-c3ccc4c(c3)CC(=O)N4)nc(N3CCC(N)CC3)nc12     pIC50    < 6.00
4  CC(C)c1cnn2c(NCc3ccccc3-c3ccc4ccccc4n3)nc(N3CCC(CN)CC3)nc12     pIC50    < 6.00

Reported pIC50, molecule Cc1[nH]c(-c2ccccc2CNc2nc(N3CCC(N)CC3)nc3c(C(C)C)cnn23)nc1C(=O)NC1CCOCC1 : ____
< 6.00

Look up pIC50: CC(C)c1cnn2c(NCc3c(Cl)cccc3-n3ccc(C(=O)NC4COC4)n3)nc(N3CCC(N)CC3)nc12
< 6.00

// query pIC50 value for entry CC(C)c1cnn2c(NCc3c(Cl)cccc3N3CCOCC3)nc(N3CCC(N)CC3)nc12
< 6.00

I am curious: what pIC50 value has been reported for CC(C)c1cnn2c(NCc3ccccc3-c3ccc4ccccc4n3)nc(NCC(O)CCN)nc12 (racemic) ?
< 6.00

---

target: CDK1/Cyclin B (Homo sapiens, UniProt P06493); construct: purchased Invitrogen PR4768C; assay: Enzymatic assay for CDK1 (FRET based LANCE Ultra kinase assay); type: biochemical; settings: read-out: CDK1 enzymatic activity (IC50 range)
PROPERTY: IC50

Use the examples below as a reference point.
> print(dat)
                      smiles.representation        measured
1  CC(C)c1cnn2c(NCc3ccccc3Oc3ccc(NC(=O)CCCN(C)C)cc3)nc(N3CCC(N)CC3)nc12  100 to 1000 nM
2  CC(C)c1cnn2c(NCc3ccccc3N(C)c3ccccc3)nc(N3CCC(N)CC3)nc12  100 to 1000 nM
3  CC(C)c1cnn2c(NCc3ccccc3-n3cccn3)nc(NC3CCNCC3)nc12       > 1000 nM

Alright, here's another molecule for you.
Quick one: IC50 for CC(C)c1cnn2c(NCc3ccccc3-c3nc4ccccc4o3)nc(N3CCC(N)CC3)nc12 ?
100 to 1000 nM
